src = patent US20080070867A1

- test-system: Human recombinant PTP-1B (Homo sapiens, UniProt P18031)
- Construct: Human recombinant PTP-1B, containing amino acids 1-321, fused to GST enzyme; GST (glutathione S-transferase)
- Sequence (P18031 1-321): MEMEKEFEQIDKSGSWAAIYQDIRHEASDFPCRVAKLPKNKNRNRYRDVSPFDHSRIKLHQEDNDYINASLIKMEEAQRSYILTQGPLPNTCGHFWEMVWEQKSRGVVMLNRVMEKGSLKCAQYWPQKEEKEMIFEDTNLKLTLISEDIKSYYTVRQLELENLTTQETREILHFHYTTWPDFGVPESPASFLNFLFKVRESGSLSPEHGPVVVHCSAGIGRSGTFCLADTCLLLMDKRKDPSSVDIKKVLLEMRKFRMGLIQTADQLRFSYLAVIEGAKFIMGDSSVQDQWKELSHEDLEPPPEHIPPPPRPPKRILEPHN
- test-method-notes: Assay for PTP-1B Activity (pNPP substrate)
- test-settings: human recombinant PTP-1B (1-321) GST fusion, 2 mM pNPP, pH 7.4, 30° C., 20 min; read-out: Activity Code (IC50 range)
pIC50: −log10 of the molar value.
Reported pIC50 by item:
assay-metric: pIC50

                                   molecule  endpoint_value
0  COC(=O)c1ccc(-c2c[nH]c(=O)n2Cc2ccc(C(F)(F)P(=O)(O)O)c(Br)c2)cc1 [Compound 41]    5.60 to 6.60
1  COC(=O)c1ccc(-c2cn(Cc3ccccn3)c(=O)n2Cc2ccc(C(F)(F)P(=O)(O)O)c(Br)c2)cc1 [Compound 25]    6.60 to 7.00
2  N#Cc1ccc(-c2cn(Cc3ccccc3)c(=O)n2Cc2ccc(C(F)(F)P(=O)(O)O)c(Br)c2)cc1 [Compound 20]    6.60 to 7.00
3  COC(=O)c1ccc(-c2cn(Cc3ccc(C#N)cc3)c(=O)n2Cc2ccc(C(F)(F)P(=O)(O)O)c(Br)c2)cc1 [Compound 15]    6.60 to 7.00
4  O=C(O)COc1ccc(Cn2ccn(Cc3ccc(C(F)(F)P(=O)(O)O)c(Br)c3)c2=O)cc1Cl [Compound 83]    5.60 to 6.60
5  O=c1n(Cc2ccccc2)cc(-c2ccccc2)n1Cc1ccc(C(F)(F)P(=O)(O)O)c(Br)c1 [Compound 29]    5.60 to 6.60
6  NC(=O)c1ccc(-c2cn(Cc3ccccc3)c(=O)n2Cc2ccc(C(F)(F)P(=O)(O)O)c(Br)c2)cc1 [Compound 27]    6.60 to 7.00
7  O=c1n(Cc2ccccc2)cc(-c2ccc3c(c2)OCCO3)n1Cc1ccc(C(F)(F)P(=O)(O)O)c(Br)c1 [Compound 30]    5.60 to 6.60
8  O=C(O)COc1ccc(-c2cn(C3CC3)c(=O)n2Cc2ccc(C(F)(F)P(=O)(O)O)c(Br)c2)cc1 [Compound 52]          > 7.00

* * *

- test-system: Human recombinant PTP-1B (Homo sapiens, UniProt P18031)
- Construct: Human recombinant PTP-1B, containing amino acids 1-321, fused to GST enzyme; GST (glutathione S-transferase)
- test-method-notes: Assay for PTP-1B Activity (pNPP substrate)
- test-settings: human recombinant PTP-1B (1-321) GST fusion, 2 mM pNPP, pH 7.4, 30° C., 20 min; read-out: Activity Code (IC50 range)
pIC50: −log10 of the molar value.
assay-metric: pIC50

>>> df
                                   compound                               test_system  endpoint_value
0  Cn1cc(-c2ccc(C(=O)OCOC(=O)C(C)(C)C)cc2)n(Cc2ccc(C(F)(F)P(=O)(O)OCOC(=O)C(C)(C)C)c(Br)c2)c1=O [Compound 80]  Human recombinant PTP-1B (Homo sapiens, UniProt P18031)    4.60 to 5.60
1  COC(=O)c1cccc(-c2cn(C3CC3)c(=O)n2Cc2ccc(C(F)(F)P(=O)(O)O)c(Br)c2)c1 [Compound 62]  Human recombinant PTP-1B (Homo sapiens, UniProt P18031)    5.60 to 6.60
2  O=C(O)c1ccc(-c2c[nH]c(=O)n2Cc2ccc(C(F)(F)P(=O)(O)O)c(Br)c2)cc1 [Compound 7]  Human recombinant PTP-1B (Homo sapiens, UniProt P18031)    5.60 to 6.60
3  CCOC(=O)n1cc(-c2ccc(C#N)cc2)n(Cc2ccc(C(F)(F)P(=O)(O)O)c(Br)c2)c1=O [Compound 75]  Human recombinant PTP-1B (Homo sapiens, UniProt P18031)    6.60 to 7.00
